I'd appreciate it if you could supply LD50 values for the items below.
Assay: Acute toxicity, DL50 (mice), ip
Conditions: mouse, in vivo
Where a name gives a salt, the structure may show the parent alone.

Go through the list and state LD50 for each entry.
1. O=c1oc(CCN2CCN(c3ccc(Cl)cc3)CC2)c(-c2ccc(Cl)cc2)o1 [Compound 21, hydrochloride]
2. O=c1oc(CCN2CCOCC2)c(-c2ccc(F)cc2)o1 [Compound 8, hydrochloride]
3. Cl.Cl.O=c1oc(CCN2CCN(C(c3ccccc3)c3ccc(Cl)cc3)CC2)c(-c2ccc(Cl)cc2)o1 (stereo not shown)
4. O=c1oc(CCN2CCN(c3ccccc3)CC2)c(-c2ccc3ccccc3c2)o1 [Compound 14, hydrochloride]

1. > 1000 mg/kg
2. > 1000 mg/kg
3. > 1000 mg/kg
4. 830 mg/kg
